Test system: TLR7 induced IL-6 secretion in human mononuclear cells (PBMC's)
Assay: TLR7 induced IL-6 in human PBMC's
Type: cell-based
Conditions: read-out: TLR7 induced IL-6 secretion in hPBMC's (IC50)
Consider the following molecules; for each one, report its IC50.

# SMILES_RECORD, IC50
data = [
    ("Cn1cc(-c2cccc(-c3ncc(-c4cnn(C)c4)c(NCC(F)(F)C(F)(F)C(F)(F)F)n3)c2)cn1", "1000 to 5000 nM"),
]

Kindly consider the entry below.
*Q* State IC50 on TLR7 induced IL-6 secretion in human mononuclear cells (PBMC's). Entry: `Cn1cc(-c2cccc(-c3ncc(-c4cnn(C)c4)c(N[C@H]4CCCC[C@@H](O)[C@H]4O)n3)c2)cn1`
*A* < 100 nM
